Test: Activators via SNCA 5'UTR binding, MLPCN (AID 1814)
Details: alpha-synuclein 5'UTR reporter, activators screen; active compounds read low; tested at 7.5 µM
The campaign covered roughly 300,000 compounds. About 22,000 (7.3%) were called active. Roughly 2% stayed inconclusive and do not appear here. This excerpt belongs to a sample that is enriched for actives.
Parameter: activity score

Completed entries (count: 5):
In [3]: df
Out[3]:
                                   compound           result
0         CC(C)(C)c1ccc(NC(=O)NCc2ccco2)cc1   -123% (active)
1            O=c1c(-c2ccccc2)coc2cc(O)ccc12   -128% (active)
2        CC(C)n1c(O)c(N=Nc2ccccn2)c2ccccc21  -76.9% (active)
3  COc1ccc(-c2csc(NC3OC(=O)c4ccccc43)n2)cc1 (stereo not drawn)   -114% (active)
4                  CCc1nnc(NC(=O)c2cccs2)s1   -125% (active)

# return activity score for each item in the list
1. COC(=O)c1ccc(CNC(=O)c2ccc3oc(C(C)C)nc3c2)cc1
2. CN(C)c1ccc(/C=N/NC(=O)c2ccc(Cn3cc(Br)cn3)o2)cc1
3. COc1cc(/C=N/Nc2nc3ccccc3s2)ccc1O
4. Cc1ccc(O)c(NC(=O)c2cc(-c3ccco3)on2)c1
5. CCOC(=O)c1[nH]c2c(c1C)C(=O)CC(c1ccc(N(C)C)cc1)C2 (stereo not drawn)
6. N#CC(=C1SC=CS1)c1nc(-c2ccccc2)cs1
7. Brc1ccc2c(c1)[C@H]1OCC[C@H]1[C@@H](c1cccs1)N2
8. O=C(CN1C(=O)COc2ccccc21)Nc1ccc(F)cc1

Data returned:
["-95.9% (active)", "-69.3% (active)", "-82.9% (active)", "-184% (active)", "-105% (active)", "-305% (active)", "72.2% (inactive)", "-126% (active)"]

====

Can you tell me activity score for the items I'm about to list?
Assay: Activators via SNCA 5'UTR binding, MLPCN (AID 1814)
Details: alpha-synuclein 5'UTR reporter, activators screen; active compounds read low; tested at 7.5 µM
The campaign covered roughly 300,000 compounds. About 22,000 (7.3%) were called active. About 2% were inconclusive and are not listed. This is one part of a sample in which actives are shown more often than they occur.
Numbers only, in %.

>>> print(df.to_string())
                        structure_as_smiles  uom  numeric_result
0  C=CCN(CC=C)S(=O)(=O)c1ccc(C(=O)Nc2sc3c(c2C(N)=O)CCCCC3)cc1    %           -70.1
1  O=C(Nc1cccc(-c2nc3ccccc3[nH]2)c1)c1ccc(C(=O)Nc2cccc(-c3nc4ccccc4[nH]3)c2)cc1    %           -70.2
2  Cc1ccc(OCc2cc(C(=O)N(C)CCc3ccccc3)no2)cc1C    %            -115
3  Cc1cc(-c2n[nH]c(=S)n2/N=C/C(Br)=C/c2ccccc2)n[nH]1    %            -235
4           O=C(NC(=S)Nc1ccc(Cl)cc1Cl)C1CC1    %            -107

# next molecule below
Data request: Check the records and state activity score for `O=S(=O)(c1ccc(Br)cc1)N1CCC(c2nc3ccccc3[nH]2)CC1`
Data returned: 78.3
